B1: RPS21 (parent)
chain: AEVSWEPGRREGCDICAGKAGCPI

- Variants of: B1
- assay-notes: protein stability index of a GFP-peptide fusion (GPS, HEK-293T) (PSI 1-6); higher = more stable;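 also: lentivirally expressed fusions sorted by FACS into six bins by GFP to DsRed ratio, PSI derived from sequencing read proportions per bin multiplied by bin number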
- test-conditions: c terminus: a fixed tail appended
Classification field: Met = protein stability index at or over 3; Not met = protein stability index under 3.

Example results:
Say whether AEVSWEPGRREGCDICAGFAGCPI [K19F] shows protein stability index of 3 or more.
Not met

Same lookup for AEVSWNPGRREGCDICAGKAGCPI [E6N] , please.
Met

Query AEVSWEHGRREGCDICAGKAGCPI [P7H] next
Met

Same again, this time with AEVSWEPGRREGCAICAGKAGCPI [D14A]
Not met

Now try AEVSWEPGRREGCDICAGKPGCPI [A20P] .
Met

And for AEVSIEPGRREGCDICAGKAGCPI [W5I] ?
Met

Now let's try a different one.
Confirm if protein stability index reported for the variant AEVSWEPGRREGCDICAGKAGCGI [P23G] is 3 or above.
Met
